The reported numbers originate from the supplement of paper PMC9170038.

Tested on: MS2 coat protein
Assay: apparent KD of MS2 coat protein; designed switch direction (-1 OFF switch, 1 ON switch): -1; higher = weaker reporter binding
Conditions: input ligand: none
experimental.endpoint: apparent KD of MS2 coat protein (nM)

| sequence.data | experimental.endpoint | numeric.value |
| --- | --- | --- |
| AUAAUACAUGAGGAUCACCCAUGUGAGGAUAUACGACUCCAACCAAACUGCUUGGACCGUAGAAGGCACAAGGG [Exclusion 1 (MOD1 Esqu)] (Eterna round: R97, puzzle: Exclusion 1) | apparent KD of MS2 coat protein | 589 |
| ACAUGAGGAUCACCCAUGUACAGGGUUUAGUUUCAUCGUUUGAAGGAUAUACUCAGUUAGUUGUUGUAGAAGGUCACAUUUUGG [JR_ExcNG3_Sub004] (Eterna round: R96, puzzle: Exclusion NG 3) | apparent KD of MS2 coat protein | 126 |
| UGUCUUGCAGGAUAUCAUGUGAUAUACAUGAGGAUCACCCAUGUUAGCCUCAUGAGCGUCUGAGAAGGGUAAGACG [Eternabot (L2) Solution 22] (Eterna round: R97, puzzle: Exclusion 5) | apparent KD of MS2 coat protein | 40.1 |
| AUCCUCACUUUUUAAGCGAACAUGAGGAUCACCCAUGUACAAGCUUUUUGCUCGGCUUAUAAAGGGUUGGAAACAAC [Alacar Attempt 3] (Eterna round: R97, puzzle: Sensor, turn-off variant 1) | apparent KD of MS2 coat protein | 16 |
| GGACAUUCGGUAAGGAUAUUGACCCAACCUAGGAUCAAGAAGGUACAUGAGGAUCACCCAUGUCAGAUCCGUCA [Eternabot (Original) Solution 34] (Eterna round: R97, puzzle: Brourd's mod of Exclusion 4) | apparent KD of MS2 coat protein | 16 |
| AGACAUGAGGAUCACCCAUGUAGUGGUCCUGGUACGCGAACGUAGGAUAUAUACUGGAUUCCAAUGUAGAAGGACGACACCGCG [Tetege] (Eterna round: R96, puzzle: Exclusion NG 3) | apparent KD of MS2 coat protein | 149 |
| ACAUGAGGAUCACCCAUGUGAAACCAAUGGCUGACUUUGAGACAGGAUAUUCGUGCAUAUCAAACGAAGAAGGGUCAUUACUGG [Deportation 95 - Jieux - Exclusion NG 3] (Eterna round: R96, puzzle: Exclusion NG 3) | apparent KD of MS2 coat protein | 46.8 |
| UUAAAUCAUGUAGGAUAUGCGUGGCGAAGCUAUGCAGAAGGACAUGAGGAUCACCCAUGUGCUUCCGUCUGAGUACAGACGGUA [Mat - Exclusion NG 1 - Mod of JL - D11] (Eterna round: R96, puzzle: Exclusion NG 1) | apparent KD of MS2 coat protein | 101 |
| UUGUACAGAGGAUAUACAUGAGGAUCACCCAUGUGUUUCAGCUAGGAGACUAGCGAAAGUAGAAGGCUGUACUC [salish99_ex3_r4_015] (Eterna round: R97, puzzle: Exclusion 3) | apparent KD of MS2 coat protein | 11.1 |
| GGCUUACAUGAGGAUCACCCAUGUCAGGAUAUAGAACGAUGGCGGAACGCCAUCGCCGCUAGAAGGGACCGGUG [Eternabot (Original) Solution 25] (Eterna round: R97, puzzle: Exclusion 1) | apparent KD of MS2 coat protein | 78 |
| UAUCGGGACUGAGGAUAUUCGUUCGAACACGAAGAAGAAGGUAGUGUCAGGGACAUGAGGAUCACCCAUGUGAUUUCAGUCCCA [JL ViennaUCT Erinle mod 4] (Eterna round: R96, puzzle: Exclusion NG 1) | apparent KD of MS2 coat protein | 139 |
| UUGGUGUCAGGAUAUGCUUAAUGUAUUUUAUUAUAAUAUAUACAUGAGGAUCACCCAUGUAGAAGGGACAUUGU [LRO-Excl2-08-Fireball XL5] (Eterna round: R97, puzzle: Exclusion 2) | apparent KD of MS2 coat protein | 154 |
| UUAAUAUAUGUAGGAUAUGCGUGGCGAAGCUAUGCAGAAGGACAUGAGGAUCACCCAUGUUCCAGCGUCCGCGUACGGAUGCAA [JL Eng1 1.21 mod 11] (Eterna round: R96, puzzle: Exclusion NG 1) | apparent KD of MS2 coat protein | 13.3 |
| AGCAAGCUUUUAAGAUCCUACAUGAGGAUCACCCAUGUGCUCGUCUUAUAACGUACUGUGACGAAAGUCACGGUACG [JL TOV1 3.32] (Eterna round: R97, puzzle: Sensor, turn-off variant 1) | apparent KD of MS2 coat protein | 217 |
| GAUCCCAUUGUUAGGAUAUAUAGCCUAACGCGAGUGUAGAAGGGACAUGAGGAUCACCCAUGUGUGCAUUAGGG [Eternabot (L2) Solution 96] (Eterna round: R97, puzzle: Brourd's mod of Exclusion 4) | apparent KD of MS2 coat protein | 43.8 |
| AAUGUGUGAGGAUAUUAAUUGCAAGCGAAUAGGCUUGUGAUUGAGAAGGCACAUGAGGAUCACCCAUGUUCCAA [JR_Ex4_Sub083] (Eterna round: R97, puzzle: Exclusion 4) | apparent KD of MS2 coat protein | 38.6 |
| AUACUCGUAGGAUAUGGCAAGCUGAACAUGAGGAUCACCCAUGUGUUCUACAGAUCUGGGUUAGAAGGACGUUAUU [Eternabot (L2) Solution 39] (Eterna round: R97, puzzle: Exclusion 5) | apparent KD of MS2 coat protein | 59.7 |
| AAAAAUUACAUGAGGAUCACCCAUGUAGAGUGGGAAGAGAGAUAGGAUAUGAUGUGAGAAUCAUAUCAGAAGGAUCGAGACUCA [AK ExNG3-2.1] (Eterna round: R96, puzzle: Exclusion NG 3) | apparent KD of MS2 coat protein | 119 |
